Overview of reported Preventive rate (%) across a group of compounds:
system: Erysiphe graminis; test: Effects on Barley powdery mildew (preventive spray test); format: in vivo; conditions: conc. of active ingredient 20 ppm, lesions counted seven days after inoculation

{"Compound": "CON=C(C(=O)OC)c1ccccc1COc1ccc2c(c1C)OCCC2=NOC [c-15]", "Experimental Target": "Erysiphe graminis", "Preventive rate (%)": 100}
{"Compound": "CNC(=O)C(=NOC)c1ccccc1COc1ccc2c(c1C)OCCC2=NOCc1c(F)c(F)c(F)c(F)c1F [c-83]", "Experimental Target": "Erysiphe graminis", "Preventive rate (%)": 96}
{"Compound": "CNC(=O)C(=NOC)c1ccccc1COc1ccc2c(c1C)OCCC2=NOCC=C(C)C [c-67]", "Experimental Target": "Erysiphe graminis", "Preventive rate (%)": 100}
{"Compound": "CNC(=O)/C(=N/OC)c1ccccc1COc1ccc2c(c1C)OCC2=NOCc1ccccc1 [a-73]", "Experimental Target": "Erysiphe graminis", "Preventive rate (%)": 100}
{"Compound": "CNC(=O)/C(=N/OC)c1ccccc1COc1ccc2c(c1)OCC2=NOC [a-5]", "Experimental Target": "Erysiphe graminis", "Preventive rate (%)": 95}
{"Compound": "CNC(=O)/C(=N/OC)c1ccccc1COc1ccc2c(c1)OCC2=NOC/C=C/Cl [a-63]", "Experimental Target": "Erysiphe graminis", "Preventive rate (%)": 100}
{"Compound": "C=C(Cl)CON=C1COc2c1ccc(OCc1ccccc1/C(=N\\OC)C(=O)NC)c2C [a-64]", "Experimental Target": "Erysiphe graminis", "Preventive rate (%)": 98}
{"Compound": "CNC(=O)/C(=N/OC)c1ccccc1COc1ccc2c(c1)CCC2 [comparative compound (1), reference compound]", "Experimental Target": "Erysiphe graminis", "Preventive rate (%)": 17}
{"Compound": "CON=C1COc2cc(OCc3ccccc3/C(=N\\OC)C(=O)OC)ccc21 [a-4]", "Experimental Target": "Erysiphe graminis", "Preventive rate (%)": 93}
{"Compound": "CON=C(C(=O)OC)c1ccccc1COc1ccc2c(c1C)OCCC2=NOCc1c(F)c(F)c(F)c(F)c1F [c-82]", "Experimental Target": "Erysiphe graminis", "Preventive rate (%)": 86}
{"Compound": "CNC(=O)/C(=N/OC)c1ccccc1COc1ccc2c(c1C)OCC2=NOC/C=C/Cl [a-62]", "Experimental Target": "Erysiphe graminis", "Preventive rate (%)": 100}
{"Compound": "CNC(=O)/C(=N/OC)c1ccccc1COc1ccc2c(c1C)OC(C)C2=NOC (stereo not drawn) [b-7]", "Experimental Target": "Erysiphe graminis", "Preventive rate (%)": 100}
